# Protocol: H1N1 influenza NS1A inhibitors, functional cell based assay (AID 504329)
# Experimental Context: percent inhibition, at 12.5 µM, hits give high values
Among all 340,000 compounds or so, about 1,000 (0.29%) were called active. Only a sample is shown. Measured potencies and affinities stand elsewhere.
Readout Label: inhibition (%)

                                    compound  result
 0  CCCCCOc1ccc(C(O)C(CN2CCOCC2)c2ccccc2)cc1 (stereo unspecified)    -5.3
 1  Cc1[nH]n(-c2ccccc2)c(=O)c1N=Nc1ccc(Cl)cc1    1.98
 2  O=C(NNc1cccc(Cl)n1)c1ccccc1CC[N+](=O)[O-]   -1.98
 3  CN(C)S(=O)(=O)c1cccc(NC(=S)N/N=C/c2cc(Br)ccc2O)c1   -4.31
 4          Clc1ccc(-c2noc(COc3ccccc3)n2)cc1   -0.74
 5  O=C(c1ccc(O)cc1)c1ccc(C(=O)c2ccc(O)cc2)cc1   -19.1
 6  CCS(=O)(=O)N(CC(=O)Nc1cccc2ccccc12)c1ccc(OC)cc1      -2
 7              O=C(c1ccc(O)cc1)c1ccc(Cl)cc1   -10.1
 8    Cc1ccc(S(=O)(=O)NC(=O)Nc2ccc(F)cc2)cc1   -6.14
 9  Cc1[nH]n(-c2ccccc2)c(=O)c1N=Nc1c(Cl)cccc1Cl   -0.23
10  COc1cccc(/C=N/NC(=S)Nc2cccc(S(=O)(=O)N(C)C)c2)c1    -0.6

====

# Protocol: H1N1 influenza NS1A inhibitors, functional cell based assay (AID 504329)
# Experimental Context: percent inhibition, at 12.5 µM, hits give high values
The whole screen tested about 340,000 compounds, of which about 1,000 (0.29%) were called active. A selection follows. Potency and affinity values are given separately.
inhibition overview
Readout Label: inhibition (%)

>>> print(df.to_string())
                                    compound  result
 0  O=C(COC(=O)Cc1ccc(Cl)cc1)Nc1ccc(OC(F)F)cc1   -4.03
 1  CC(C)C(=O)Nc1ccc(NC(=S)NC(=O)c2ccccc2F)cc1    1.28
 2  Cc1cccc2cc(C#N)c(SCC(=O)Nc3ccccc3N3CCOCC3)nc12   -15.7
 3  CC1CCCN(C2=C(NS(=O)(=O)c3ccc(Br)cc3)C(=O)c3ccccc3C2=O)C1 (stereo unspecified)    27.1
 4       S=C(Nc1ccc(Cl)cc1)Nc1ccc2c(c1)OCCO2   -3.12
 5      O=C(c1cccc(Cl)c1)N1CCN(C2CCCCCC2)CC1   -6.08
 6              Cc1ccc2nc(C)cc(N3CCOCC3)c2c1   -16.8
 7  O=C(CSc1nnnn1-c1ccc2c(c1)OCO2)NCc1ccccc1    0.06
 8      COC(=O)c1nnn(-c2cccc(Cl)c2)c1C(=O)OC   -5.37
 9  COc1ccc(-c2cc(C(=O)Nc3ccc(F)cc3F)no2)cc1   -13.1
10  NC(=O)C1CCN(C2=C(NS(=O)(=O)c3ccccc3)C(=O)c3ccccc3C2=O)CC1    24.5

====

Below, each of the compounds is paired with its reported inhibition value.
# Protocol: H1N1 influenza NS1A inhibitors, functional cell based assay (AID 504329)
# Experimental Context: percent inhibition, at 12.5 µM, hits give high values
In all, about 340,000 compounds went through this assay and about 1,000 (0.29%) were called active. Not all results are given here. Results with a measured potency or affinity are listed apart.
Readout Label: inhibition

>>> df
                                    compound             result
 0  CC(C(=O)OCC(=O)c1ccccc1)N1C(=O)c2ccccc2C1=O (stereo unspecified)  -4.62% (inactive)
 1  COc1ccc(-c2sc3cc4c(cc3c2-c2ccc3c(c2)OCCO3)OCO4)cc1  -11.4% (inactive)
 2   CCCc1c(C(=O)Nc2ccc(F)cc2F)cnn1-c1ccccc1   2.03% (inactive)
 3  CC(=O)Nc1ccc(S(=O)(=O)N2CCC3(CC2)OCCO3)cc1   4.94% (inactive)
 4      Cc1ccccc1CN1CCN(CC(=O)NCc2ccccc2)CC1  -8.48% (inactive)
 5  O=C(O)C1C2C=CC(C2)C1C(=O)Nc1ccc(Cl)c(Cl)c1 (stereo unspecified)   1.34% (inactive)
 6  CCOc1ccc(CN(CC)C(=O)Cc2c[nH]c3ccccc23)cc1OC  -0.83% (inactive)
 7  COC(=O)C1CC2=C(CCC2=O)N(c2ccccc2)C1=O (stereo unspecified)  -7.88% (inactive)
 8                     Cc1ccnc2c1ccc1ccccc12  -14.1% (inactive)
 9         CCCCOc1c(Cl)cc(CNC(C)(C)CO)cc1OCC  -2.92% (inactive)
10  CCO/C=C/C(O)(CNC(=O)COc1ccccc1F)C(F)(F)F (stereo unspecified)  -0.96% (inactive)
